tested on: WHIM2 (cells of a triple-negative basal-like breast cancer xenograft); experiment: cell viability (% of vehicle); higher = less cytotoxic; conditions: 10 µM; 72 h;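 note: PDX cells carrying CMV promoter-driven luciferase, viability read as total photon flux per second by IVIS imaging following D-luciferin, vehicle control 0.1% DMSO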
readoutKind: cell viability
Give bare numbers.

-- ask What measured cell viability goes with Nc1nc(=O)c2c(CCc3ccc(C(=O)NC(CCC(=O)O)C(=O)O)cc3)c[nH]c2[nH]1.O.[Na+] (stereo not given) [Pemetrexed disodium hemipenta hydrate] ?
-- reply 90.5

-- ask Param item = CCCCCC(O)C=CC1C(O)CC(=O)C1CCCCCCC(=O)O (stereo not given) ; retrieve measured cell viability.
-- reply 147

-- ask Bench note: what cell viability did COc1ccc2c(c1)c(CC(=O)OCC(=O)O)c(C)n2C(=O)c1ccc(Cl)cc1 show?
-- reply 86.9

Hi team, please reply with cell viability for each item in this list.
1. CCN(CC)C(=S)SSC(=S)N(CC)CC
2. CC12CCC3=C4CCC(=O)C=C4CCC3C1CCC2(O)CC#N (stereo not given)
3. CN(CCOc1ccc(NS(C)(=O)=O)cc1)CCc1ccc(NS(C)(=O)=O)cc1 [Dofetilide]
4. Cc1c(N(C)C)c(=O)n(-c2ccccc2)n1C
5. CN1CCC(COc2cnc(-c3cccc(Cn4nc(-c5cccc(C#N)c5)ccc4=O)c3)nc2)CC1
6. COc1ccc(C(=O)CC(=O)c2ccc(C(C)(C)C)cc2)cc1

-- reply
1: 102; 2: 105; 3: 90.2; 4: 117; 5: 34.3; 6: 106

Items follow; give cell viability for each.
1. COc1c2occc2cc2ccc(=O)oc12
2. CC1=CC(=O)c2ccccc2C1=O
3. CC(=O)OCC[N+](C)(C)C.[Cl-] [Acetylcholine Chloride]

-- reply
101
44.1
96.7

Dear reader, for each entry below, please note its cell viability.
1. CCCC1CC(C(=O)NC(C(C)Cl)C2OC(SC)C(O)C(O)C2O)N(C)C1.Cl (stereo not given) [Clindamycin HCl]
2. CS(=O)(=O)OCCCCOS(C)(=O)=O
3. CCCCCN(C)CCC(O)(P(=O)([O-])O)P(=O)(O)O.O.[Na+] [Ibandronate sodium]
4. CC(C)Cc1ccc(C(C)C(=O)O)cc1.NCCCCC(N)C(=O)O (stereo not given)
5. CCCC(C(=O)OCCN(CC)CC)(c1ccccc1)c1ccccc1.Cl [SKF 525A (hydrochloride)]
6. CC1CC(=O)NN=C1c1ccc(NN=C(C#N)C#N)cc1 (stereo not given)

-- reply
106
97.6
130
84.8
99.1
47.8

Provide the reported cell viability of each entry below, same order.
1. C=C[C@@H]1C[N@@]2CC[C@H]1C[C@@H]2[C@H](O)c1ccnc2ccc(OC)cc12
2. CC(C)NCC(O)COc1cccc2ccccc12.Cl (stereo not given) [Propranolol HCl]

-- reply
1: 101; 2: 83.3

Hello, the source for this data is the supplement of paper PMC6992640, in case you need it.
